- system.name: B-Raf (V600E)-kinase (Homo sapiens, UniProt P15056, V600E)
- Sequence (P15056 whole entry V600E): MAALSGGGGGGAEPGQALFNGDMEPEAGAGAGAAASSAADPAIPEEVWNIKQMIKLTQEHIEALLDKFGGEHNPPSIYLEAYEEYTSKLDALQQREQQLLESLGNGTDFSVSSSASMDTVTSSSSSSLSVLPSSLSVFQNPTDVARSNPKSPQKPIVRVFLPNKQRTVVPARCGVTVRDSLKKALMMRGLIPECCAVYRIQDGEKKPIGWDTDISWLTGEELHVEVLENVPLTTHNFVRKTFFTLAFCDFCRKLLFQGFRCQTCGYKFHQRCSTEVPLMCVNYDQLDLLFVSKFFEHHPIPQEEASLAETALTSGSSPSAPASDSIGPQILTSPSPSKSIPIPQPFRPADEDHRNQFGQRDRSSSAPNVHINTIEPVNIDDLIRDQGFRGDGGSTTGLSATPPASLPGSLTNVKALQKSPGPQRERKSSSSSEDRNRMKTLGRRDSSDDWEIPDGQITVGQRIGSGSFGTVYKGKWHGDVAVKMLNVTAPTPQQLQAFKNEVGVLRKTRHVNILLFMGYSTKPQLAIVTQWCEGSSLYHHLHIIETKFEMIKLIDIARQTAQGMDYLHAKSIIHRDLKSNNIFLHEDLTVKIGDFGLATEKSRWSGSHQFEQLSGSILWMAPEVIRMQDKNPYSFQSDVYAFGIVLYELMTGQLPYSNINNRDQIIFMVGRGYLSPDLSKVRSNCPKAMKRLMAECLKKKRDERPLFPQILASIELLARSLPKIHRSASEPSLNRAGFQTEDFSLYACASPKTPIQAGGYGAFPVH
- test.method.notes: Kinase test B-Raf (V600E)
- study.conditions: 1 h incubation with kinase before start, 250 μM ATP, biotinylated MEK1 substrate
- Description: Kinase Test B-Raf (V600E) In a dilution series 10 μL/well of test substance solution are placed in a multiwell plate. The dilution series is selected so that generally a range of concentrations of 2 μM to 0.119 nM or 0.017 nM is covered. […] After the addition of 200 μL/well Enhancement Solution (Perkin Elmer, #4001-0010/#1244-105) the mixture is shaken for 10 min at RT and then measured in a Wallac Victor using the program “Delfia Time Resolved Fluorescence (Europium)”. […]
pIC50: −log10 of the molar value.
Label MET for high-side pIC50 (at or above 8) and NOT MET for low-side pIC50 (below it).

| chemical.smiles | system.name | group.label |
| --- | --- | --- |
| CCCc1cc(C(=O)Nc2cnc(C)c(-n3cc(-c4cncc(N5CCN(C(C)C)CC5)c4)nn3)c2)nn1C(C)(C)C | B-Raf (V600E)-kinase (Homo sapiens, UniProt P15056, V600E) | NOT MET |
| Cc1ncc(NC(=O)c2cc(C(C)C)n(C(C)(C)C)n2)cc1-n1cc(-c2cncc(N3CCN(C(C)C)CC3)c2)nn1 | B-Raf (V600E)-kinase (Homo sapiens, UniProt P15056, V600E) | NOT MET |
| Cc1ncc(NC(=O)c2cc(C3CC3)n(C(C)(C)C)n2)cc1-n1cc(-c2cncc(N3CCN(C(C)C)CC3)c2)nn1 | B-Raf (V600E)-kinase (Homo sapiens, UniProt P15056, V600E) | NOT MET |
| Cc1ncc(NC(=O)c2ccc(C(C)(C)C)s2)cc1-n1cc(-c2cncc(N3CCN(C)CC3)c2)nn1 | B-Raf (V600E)-kinase (Homo sapiens, UniProt P15056, V600E) | MET |
| Cc1ncc(NC(=O)c2cc(C)n(C(C)(C)C)n2)cc1-n1cc(-c2cncc(N3CCCN(C(C)C)CC3)c2)nn1 | B-Raf (V600E)-kinase (Homo sapiens, UniProt P15056, V600E) | NOT MET |
| CCCN1CCN(c2cncc(-c3cn(-c4cc(NC(=O)c5cc(C6CC6)n(C(C)(C)C)n5)cnc4C)nn3)c2)CC1 | B-Raf (V600E)-kinase (Homo sapiens, UniProt P15056, V600E) | NOT MET |
